# Tested on: Saccharomyces cerevisiae
# assay remarks: fraction of cells in G1 phase (DNA content, flow cytometry); higher = more cells with unreplicated DNA (G1 delay)
# details: temperature: 30 C; YPD; JTY2953 pdr5 snq2 (sensitized); drug added to: cultures diluted from stationary phase; 6-7 h
Structures can show the parent of a compound that is named as a salt.
result type: fraction of cells in G1 phase

| compound | tgt | recorded measurement |
| --- | --- | --- |
| CC(=O)O[C@H]1C[C@@H]2CC[C@@H]3[C@H](CCC4(C)[C@H]3C[C@H]([N+]3(C)CCCCC3)[C@@H]4OC(C)=O)C2(C)C[C@@H]1[N+]1(C)CCCCC1 (some centres undefined) [Pancuronium Br] (34.9114 µM) | Saccharomyces cerevisiae | 0.487 |
| COc1cccc(C2(O)CCCCC2CN(C)C)c1 (centres undefined) [Tramadol HCl] (75.935 µM) | Saccharomyces cerevisiae | 0.492 |
| C[C@@H]1CN([C@H]2CC[C@](C#N)(c3ccc(F)cc3)CC2)CC[C@]1(C(=O)O)c1ccccc1 [Levocabastine HCl] (47.5588 µM) | Saccharomyces cerevisiae | 0.468 |
| CC[C@@H](C(N)=O)N1CCCC1=O [Levetiracetam] (117.5 µM) | Saccharomyces cerevisiae | 0.529 |

These data points were gathered from the supplement of paper PMC3342239.
